- test-method-notes: GST conjugation activity with 1,2-epoxy-3-(p-nitrophenoxy)propane (HPLC)
- Assay type: biochemical
- experimental-setup: 0.4 mM electrophilic substrate, 4 mM glutathione, 0.1 M MOPS pH 7.0, corrected for uncatalyzed reaction
measurement-label: Activity of soybean GST enzyme, 1,2-epoxy-3-(p-nitrophenoxy)propane (nmol/min/mg)

1. ssl.pk0005.e6: soybean type III GST encoded by cDNA insert in clone ss1.pk0005.e6 (protein) MTDEVVLLDFWPSPFGMRVRIALAEKGIEYEYKEEDLRNKSPLLLQMNPVHKKIPVLIHNGKPISESLIAVQYIEEVWNDRNPLLPSDPYQRAQARFWADYVDIKIHDLGKKIWTSKGEEKEAAKKEFIEALKLLEEQLGDKTYFGGDNIGFVDIALVPFYTWFKVYETFGSLNIENECPRFVAWAKRCLQKESVAKSLPDQHKVYEFVVEIRKKLVIE | 4
